- test.description: Plasma pharmacokinetics in NCI-H1975 tumor-bearing mice
- Format: in vivo
- settings: Nu/Nu nude, mouse, plasma, po, 2.5 mg/kg, 2.5 mg/kg oral daily, Day 14; read-out: AUC0–t in plasma

molecule	AUC(0-t) (µg·h/mL)
C=CC(=O)Nc1cc(Nc2nccc(-c3c4n(c5ccccc35)CCCC4)n2)c(OC)cc1N(C)CCN(C)C [SH-1028]	0.272

====

- assayed.target: UniProt O94804
- Sequence (O94804 whole entry): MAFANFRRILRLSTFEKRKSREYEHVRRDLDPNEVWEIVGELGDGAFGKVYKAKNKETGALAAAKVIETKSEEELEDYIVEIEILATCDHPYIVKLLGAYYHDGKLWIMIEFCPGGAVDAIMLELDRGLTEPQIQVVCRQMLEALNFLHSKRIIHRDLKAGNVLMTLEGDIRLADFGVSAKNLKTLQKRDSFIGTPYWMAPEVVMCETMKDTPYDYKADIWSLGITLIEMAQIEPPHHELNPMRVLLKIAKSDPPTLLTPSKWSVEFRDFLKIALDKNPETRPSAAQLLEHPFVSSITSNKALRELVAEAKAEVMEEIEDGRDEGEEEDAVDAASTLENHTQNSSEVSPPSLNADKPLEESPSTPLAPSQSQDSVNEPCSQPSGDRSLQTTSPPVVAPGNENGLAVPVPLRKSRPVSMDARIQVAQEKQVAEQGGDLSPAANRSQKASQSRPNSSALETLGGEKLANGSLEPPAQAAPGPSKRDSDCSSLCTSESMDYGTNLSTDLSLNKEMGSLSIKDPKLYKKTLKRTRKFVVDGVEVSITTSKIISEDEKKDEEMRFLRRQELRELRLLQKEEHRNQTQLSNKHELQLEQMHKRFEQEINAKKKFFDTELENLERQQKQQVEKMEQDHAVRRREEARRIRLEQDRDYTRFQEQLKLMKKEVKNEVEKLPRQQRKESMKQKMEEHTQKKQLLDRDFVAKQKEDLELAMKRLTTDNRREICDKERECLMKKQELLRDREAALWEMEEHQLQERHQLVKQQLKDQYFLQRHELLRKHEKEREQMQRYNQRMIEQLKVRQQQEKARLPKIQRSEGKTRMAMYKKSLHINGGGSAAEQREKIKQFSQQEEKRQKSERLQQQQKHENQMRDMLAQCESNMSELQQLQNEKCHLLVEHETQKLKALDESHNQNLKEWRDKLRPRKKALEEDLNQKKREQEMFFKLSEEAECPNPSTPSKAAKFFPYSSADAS
pIC50: −log10 of the molar value.
measured.metric: pIC50

molecule	measured.result
C=CC(=O)Nc1cc(Nc2nccc(-c3c4n(c5ccccc35)CCCC4)n2)c(OC)cc1N(C)CCN(C)C [SH-1028]	5.71

====

Reported pIC50, Itk(h) (Homo sapiens).
pIC50: −log10 of the molar value.
measured.metric: pIC50

C=CC(=O)Nc1cc(Nc2nccc(-c3c4n(c5ccccc35)CCCC4)n2)c(OC)cc1N(C)CCN(C)C 6.49
C=CC(=O)Nc1cc(Nc2nccc(-c3c4n(c5ccccc35)CCCC4)n2)c(OC)cc1N(C)CCNC 6.08

====

- assayed.target: IR(h), activated (Homo sapiens, UniProt P06213)
- Sequence (P06213 28-1382): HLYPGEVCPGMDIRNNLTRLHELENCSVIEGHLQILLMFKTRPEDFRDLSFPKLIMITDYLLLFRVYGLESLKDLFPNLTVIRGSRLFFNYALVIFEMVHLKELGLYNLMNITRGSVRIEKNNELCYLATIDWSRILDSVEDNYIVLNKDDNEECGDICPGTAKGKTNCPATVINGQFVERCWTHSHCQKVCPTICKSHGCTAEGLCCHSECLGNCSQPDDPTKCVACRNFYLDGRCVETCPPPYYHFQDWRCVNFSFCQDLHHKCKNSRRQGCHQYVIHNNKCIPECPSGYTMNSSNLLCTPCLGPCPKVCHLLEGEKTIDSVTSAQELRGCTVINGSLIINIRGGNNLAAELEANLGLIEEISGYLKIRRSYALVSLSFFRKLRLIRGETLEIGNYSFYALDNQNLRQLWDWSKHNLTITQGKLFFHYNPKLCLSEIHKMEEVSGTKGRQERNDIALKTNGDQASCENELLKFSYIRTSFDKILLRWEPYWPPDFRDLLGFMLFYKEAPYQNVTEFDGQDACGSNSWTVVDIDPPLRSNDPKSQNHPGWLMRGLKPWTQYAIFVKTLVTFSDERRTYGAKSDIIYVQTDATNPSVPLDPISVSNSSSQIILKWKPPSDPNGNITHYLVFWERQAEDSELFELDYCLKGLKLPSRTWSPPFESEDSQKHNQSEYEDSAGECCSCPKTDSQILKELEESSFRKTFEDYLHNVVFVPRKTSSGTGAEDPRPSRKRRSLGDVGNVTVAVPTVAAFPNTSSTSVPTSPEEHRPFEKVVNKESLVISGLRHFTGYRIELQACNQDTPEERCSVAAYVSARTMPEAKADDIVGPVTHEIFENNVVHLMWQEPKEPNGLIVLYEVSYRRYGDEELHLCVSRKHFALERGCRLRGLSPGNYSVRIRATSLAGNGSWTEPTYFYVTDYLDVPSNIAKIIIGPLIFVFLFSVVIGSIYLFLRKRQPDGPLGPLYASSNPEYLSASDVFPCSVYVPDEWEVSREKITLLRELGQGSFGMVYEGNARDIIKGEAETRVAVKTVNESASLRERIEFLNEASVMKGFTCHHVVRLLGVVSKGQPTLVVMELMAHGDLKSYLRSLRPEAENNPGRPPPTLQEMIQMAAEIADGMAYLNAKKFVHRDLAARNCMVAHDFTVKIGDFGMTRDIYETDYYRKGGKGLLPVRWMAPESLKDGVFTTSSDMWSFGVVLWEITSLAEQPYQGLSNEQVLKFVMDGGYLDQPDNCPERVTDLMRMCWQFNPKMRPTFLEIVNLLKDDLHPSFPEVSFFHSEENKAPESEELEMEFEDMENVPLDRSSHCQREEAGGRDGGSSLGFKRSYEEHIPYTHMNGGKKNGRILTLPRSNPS
- test.description: Kinase panel (Eurofins)
- settings: n = 2; read-out: IC50 kinase inhibition
pIC50: −log10 of the molar value.
Reported pIC50 by item:
measured.metric: pIC50

C=CC(=O)Nc1cc(Nc2nccc(-c3c4n(c5ccccc35)CCCC4)n2)c(OC)cc1N(C)CCN(C)C 6.62
C=CC(=O)Nc1cc(Nc2nccc(-c3c4n(c5ccccc35)CCCC4)n2)c(OC)cc1N(C)CCNC 6.49

====

- test.description: Plasma pharmacokinetics in NCI-H1975 tumor-bearing mice
- Type: in vivo
- settings: Nu/Nu nude, mouse, plasma, po, 5 mg/kg, 5 mg/kg oral daily, Day 14; read-out: AUC0–t in plasma
- Protocol: NCI-H1975 tumor-bearing mice with tumor burden of approximately 200 mm^3 were used in the pharmacokinetics and pharmacodynamics study. […] Blood samples were collected at 0 (pre-dose), 10, 30 min, 1, 2, 4, 8, and 24 h post-dose. Ionization mode. […] Concentrations of each analyte were quantified by comparing the ratios for each in-trial sample with those in the relevant calibration curve.
measured.metric: AUC(0-t) (ng·h/mL)

molecule	measured.metric	measured.result
C=CC(=O)Nc1cc(Nc2nccc(-c3c4n(c5ccccc35)CCCC4)n2)c(OC)cc1N(C)CCN(C)C [SH-1028]	AUC(0-t)	308
